# Tested on: UACC-257 melanoma
# assay_name: NCI-60 one-dose screen, 48 h
# test_context: 10 µM unless noted
The panel holds about 83,000 compounds, 20% with a hit somewhere; the sample as a whole holds those more often. Active and inactive are the calls of the source. How the source made its calls: active means growth percent below 10; inactive means the rest.
Form entry, call: pick from active, inactive

Short answer needed: outcome of this test for O=[N+]([O-])c1ccc2c(c1)Cc1cc(F)ccc1-2 ?
inactive

Proceed to Cn1ccnc1C(=O)/C=C/c1ccc(CC(=O)Nc2ccccc2)cc1
inactive

Now the compound C=CC(=O)Nc1cccc(-c2nc(SC)nc(NCCN3CCOCC3)c2C#N)c1
inactive

Also check COc1ccc2c(c1)O/C(=C\c1cccc(OCC(=O)Nc3nc4c(s3)CCCC4)c1)C2=O
inactive

How about this compound: C=C1c2nc3ccccc3n2C=C(c2cccc(Cl)c2)N1Cc1ccc(OC)cc1
inactive

Next up: CCCCCC(=O)Oc1ccc(/C(=C(\C)c2ccc(OC)cc2)c2ccc(OCCN3CCCCC3)cc2)cc1
active

What do we get for COc1ccc(/C=C/c2nc(-c3n[nH]c(=O)n3-c3ccccc3)c3ccccc3n2)cc1 ?
inactive

Repeat with COc1cc(C2CC(=O)c3ccccc3N2)cc(OC)c1OC (stereo unspecified)
inactive

Would you mind doing Cc1ccccc1COc1ccc(-c2onc(C)c2-c2ccc(Cl)cc2)cc1 as well?
inactive

Same thing, different compound: CC(O)CN1CC(O)=C(c2nc3ccccc3s2)C1=N (stereo unspecified)
inactive

Ok, now C=C1C(=O)O[C@H]2[C@H]1CC/C(C=Nc1ccc(C(F)(F)F)cc1N)=C\CC[C@@]1(C)O[C@@H]21
inactive

Moving on to COc1ccc2nc(NC(=O)CSc3nnc4n3S(=O)(=O)c3ccccc3N4c3ccccc3)sc2c1
inactive

Another compound to look at: CSc1ccc(SC2c3ccc(C)cc3Oc3nc(N)c(C#N)c(N)c32)cc1 (stereo unspecified)
active

Follow-up entry: C=CC(COC(c1ccccc1)(c1ccccc1)c1ccccc1)N(CC)CC (stereo unspecified)
active

// repeat for COc1ccc(S(=O)(=O)N2CCN(C)CC2)cc1NC(=O)c1[nH]c(C)c2c1CCCCC2=O and report
inactive

Now consider Cc1cc(C)nc(SC2=C(Nc3cccc(Cl)c3)C(=O)N(Cc3ccccc3)C2=O)n1 .
inactive

And CNC(=O)c1cc(Oc2ccc(NC(=O)Nc3ccc(Cl)c(SC)c3)c(F)c2)ccn1 ?
inactive

Subsequent entry: CC(C)(O)c1cn(CCCCN2C(=O)C(=O)c3ccccc32)nn1
inactive

Now the same for C#CC(F)(F)[C@]1(O)CC[C@H]2[C@@H]3CCC4=CC(=O)CCC4=C3[C@@H](c3ccc(C4CC4)cc3)C[C@@]21C
inactive

Another: CCCn1c(=O)[nH]c(N)c([C@H]2c3ccccc3Oc3[nH]c(=O)n(CCC)c(=O)c32)c1=O
inactive

Cool, now COc1cc(C(=O)/C=C/c2cccnc2Nc2ccc(Cl)cc2)cc(OC)c1OC
active

---

# Tested on: PC-3 prostate
# assay_name: NCI-60 one-dose screen, 48 h (100 = growth as untreated, 0 = no growth, -100 = all killed)
# test_context: 10 µM unless noted
About 83,000 compounds went through this panel and 20% of them were active in at least one assay; those are over-represented in the sample as a whole.
What growth was measured for each of the following?
Provide only the numeric value, understood in %.

// growth lookup, key: COc1ccc(SC2c3ccc(C)cc3Oc3nc(N)c(C#N)c(N)c32)cc1 (configuration not stated)
-67.9

Now try C=C1C(=O)O[C@H]2[C@H]1CC/C(C=Nc1ccc(C(F)(F)F)cc1N)=C\CC[C@@]1(C)O[C@@H]21 .
14.2

Next record, please: CN1CCN(c2nc(NCCCCNc3ccnc4cc(Cl)ccc34)c3ccccc3n2)CC1
66.3

Consider next the compound COc1cccc(-c2nc3sccn3c2-c2ccnc(NCCCNS(=O)(=O)c3cccc(Cl)c3)c2)c1 in the same way.
21.7

Input CCOc1ccc(-n2nc(C(=O)Nc3cc(OC)c(OC)c(OC)c3)nc2-c2cc(OC)c(OC)c(OC)c2)cc1
70.2

Could you do the same for CC(=O)c1cc2c(N)c(C(=O)Nc3cccc(F)c3C)sc2nc1C , please?
81.4

Subsequent entry: CCOc1ccc(C(C)=O)cc1NC(=O)c1cccc(-c2nnn(CC)n2)c1
27.3

Also N#CN1CCC[C@H]1C(=O)N1CCc2c(-c3[nH]nc4ncccc34)cccc21 ?
21.6

Consider next the compound CCN=C1C=CC(=C(c2ccc(N)cc2)c2ccc(N(CC)CC)c(C)c2)C=C1 in the same way.
-5.29

Same lookup for CN(C)c1ccc(NC(=O)c2ccc(/C=C/C(=O)c3ncc[nH]3)cc2)cc1 , please.
68.1

Then C=C1C(=O)O[C@H]2[C@H]1CC/C(COC(=O)c1cc3cc(OC)ccc3[nH]1)=C\CC[C@@]1(C)O[C@@H]21 ?
-71.5

Try N=C(N)c1ccc(-c2ccc(-c3ccc4ccccc4c3)s2)s1 next.
71.9

Try O=C(C(=O)c1ccc2c(c1)OCO2)c1ccc2c(c1)OCO2 next.
100

Another compound to look at: CN(Cc1cc(Cl)cc(Cl)c1O)Cc1cc(Cl)cc(Cl)c1O
80.9

Entry C=CC(=O)Nc1cccc(Nc2nc(SC)nc(-c3cccc([N+](=O)[O-])c3)c2C#N)c1 please
37.5

Now consider O=c1oc2c(C(F)(F)F)cccc2cc1-c1csc(Nc2ccc(OCCF)cc2)n1 .
21

And what about the compound CC1C(/C=N/Nc2ccccc2)C(C#N)(C#N)C1(C#N)C#N (configuration not stated) ?
65.9

---

# System: MOLT-4 leukemia
# assay_name: NCI-60 one-dose screen, 48 h
# test_context: 10 µM unless noted
# Procedure: Growth inhibition of the MOLT-4 human tumor cell line is measured as a screen for anti-cancer activity. Cells are grown in 96 well plates and exposed to the test compound for 48 hours. Compounds are tested at a single concentration, which is 10^-5 M for most compounds. The reported endpoint is percent growth (GI% or GIPRCNT), where numbers from 0 - 100% represent growth inhibition, and numbers from -100% - 0 represent cell death. For example, a value of 40 represents 60% growth inhibition. […]
Compounds without any hit were thinned out: in the full panel of roughly 83,000, 20% have a hit. Activity calls are given as the source filed them. Rule for the calls: active = growth percent below 10; inactive = the rest.
Could you please pick one outcome from this set? TRUE for active, FALSE for inactive

Look up the recorded call for C=CC(=O)Nc1cccc(-c2nc(SC)nc(NCCc3ccc(OC)c(OC)c3)c2C#N)c1 in this test.
TRUE

Can you handle O=C1/C(=C/c2ccc3c(c2)OCO3)SC(=S)N1CCc1ccc(O)cc1 next?
FALSE

Follow-up entry: COC(=O)[C@]12CCC(C)(C)C[C@H]1[C@H]1C(=O)C[C@@H]3[C@@]4(C)c5c([nH]c6ccccc6c5=O)C(C)(C)[C@@H]4CC[C@@]3(C)[C@]1(C)CC2
FALSE

And the next one, NC(=NC1C2CC3CC(C2)CC1C3)Nc1ccc(I)cc1 (configuration not stated) ?
TRUE

Next entry: O=S(=O)(Nc1ccc(NS(=O)(=O)c2ccccc2)c(Cl)c1)c1ccccc1
FALSE

Next entry: CN1CCN(CCCOc2cccc3nc(Nc4ccc(Cl)c(F)c4)ccc23)CC1
TRUE

Now consider COc1cc2c(cc1O)CC[C@@H]1[C@@H]2CC[C@]2(C)[C@@H](OCCN(C)C)CC[C@@H]12 .
FALSE

Subsequent entry: O=c1cc(CSc2nnc(-c3ccc(F)cc3)o2)c2ccc3ccccc3c2o1
FALSE

Same question, O=C(COc1ccc(-c2nc3cc(Cl)c(Cl)cc3[nH]2)cc1)N=Nc1c(O)[nH]c2ccccc12 this time
FALSE

One more compound: Cn1nc(N)c2cc([C@@H]3Nc4ccc5[nH]ncc5c4[C@H]4C5CCC(C5)[C@@H]34)ccc21 (some centres not stated)
FALSE

CC1=CC(=NN=c2cc(C)n([O-])c(C)c2)C=C(C)[N+]1=O ?
FALSE

Do the same for CCCCCC(=O)Oc1ccc(/C(=C(\C)c2ccc(OC)cc2)c2ccc(OCCN3CCCCC3)cc2)cc1 please
FALSE

---

# Test system: LOX IMVI melanoma
# assay_name: NCI-60 one-dose screen, 48 h
# test_context: 10 µM unless noted
Compounds without any hit were thinned out: in the full panel of roughly 83,000, 20% have a hit. Activity calls are given as the source filed them. Rule for the calls: active = growth percent below 10; inactive = the rest.
Choose one outcome from this list and give only that: active, inactive

I would be grateful if you could indicate the recorded call for C=C(C)[C@@H]1CC[C@]2(C(=O)OC)CC[C@]3(C)[C@H](CC[C@@H]4[C@@]5(C)C/C(=C/c6cccc(I)c6)C(=O)C(C)(C)[C@@H]5CC[C@]43C)[C@@H]12 .
inactive

Same lookup for COc1cccc(-c2nc3sccn3c2-c2ccnc(NCCCNS(=O)(=O)c3cccc(Cl)c3)c2)c1 , please.
inactive

Thanks! And CN1C(=O)C2(SCC(C(=O)NCc3ccccc3)N2C(=O)C2CCCCC2)c2ccccc21 (centres undefined) ?
inactive

Also O=C(CCCCC(=O)N/N=C\c1ccccc1O)N/N=C\c1ccccc1O , if possible.
inactive

And for CCNC(=O)Oc1ccc(/C(=C(\C)c2ccc(Cl)cc2)c2ccc(OCCN3CCCCC3)cc2)cc1 ?
inactive

Proceed to COc1ccc(NC2=C(Sc3nc(C)cc(C)n3)C(=O)N(Cc3ccccc3)C2=O)cc1Cl
inactive

Record: O=c1nc2oc3ccc4ccccc4c3cc-2s1
inactive

Also, N#Cc1c(N)n(CCNC(=O)c2ccccc2)c2nc3ccccc3nc12 please.
inactive

Another compound: COc1cccc(/C=N/NC(=O)c2ccccc2Nc2ccnc(C(F)(F)F)c2)c1O
active

Moving on to COc1cc(-c2nc3cc(Cl)c(Cl)cc3[nH]2)ccc1OCC(=O)N=Nc1c(O)[nH]c2ccccc12
active

What do you get for COc1cc2c(cc1O)CC[C@@H]1[C@@H]2CC[C@]2(C)[C@@H](NCCN(C)C)CC[C@@H]12 ?
active

Now try CN1CCN(CCCOc2cccc3nc(Nc4ccc(Cl)c(F)c4)ccc23)CC1 .
active

Similarly, NS(=O)(=O)c1ccc(CN=C2NC(=O)S/C2=C\c2ccc(Br)cc2)cc1 ?
inactive

What about COc1cc(-c2nc(C(=O)NCC(=O)NO)nn2-c2ccc(Cl)cc2)cc(OC)c1OC ?
inactive

Also N=C(N)c1ccc(-c2ccc(-c3ccc4ccccc4c3)s2)s1 ?
active

Would you kindly repeat that for CCCCC[C@H]1C/C=C2/C(=O)C=C[C@@H]2C/C=C\CCCC(=O)O1 ?
active

Repeat with Cn1c(=O)[nH]c(=O)c2nc(CCC(=O)NCCC(=O)O)c(=O)[nH]c21
inactive

Queued: O=C1c2cc3c(cc2-c2c1c1ccc(F)cc1c(=O)n2CCCNCCO)OCO3
active

Subsequent entry: Cc1cc2nc(NC(=O)CN3CCN(CCN4C(=O)c5cccc6cccc(c56)C4=O)CC3)sc2cc1C
inactive

And what about the compound COc1cc(C(=O)Oc2ccccc2OC(=O)c2cc(OC)c(OC)c(OC)c2)cc(OC)c1OC ?
inactive

Then this compound: O=C(/C=C/C=C/c1ccc2c(c1)OCO2)N/N=C\c1ccc(O)cc1O
active

And for COc1cccc2c1C(=O)c1c(O)c3c(c(O)c1C2=O)C[C@](O)(C(=O)CO)C[C@H]3O[C@@H]1C[C@@H](NC(=O)CCCN(C)C2(c3ccc(F)cc3)CC3CCC2C3)[C@H](O)[C@@H](C)O1 (some centres undefined) ?
active

What would you report for COc1cccc(-c2nc3sccn3c2-c2ccnc(NCCCNS(=O)(=O)c3c(Cl)cccc3Cl)c2)c1 ?
inactive

Try COc1ccc(CN2c3ccccc3Sc3ccccc32)cc1O next.
inactive

# credit: PubChem BioAssay (NCI)
